- TEST NAME: Membrane permeability test of cyclic peptides (Caco-2, modified/improved method of WO 2018/124162)
- REPORTED CONDITIONS: human, Caco-2, Caco-2 (cm/sec), membrane permeability of cyclic peptides, Caco-2
Where a SMILES comes first, the peptide text is derived from it. Bridges are numbered along the chain shown (N, C = ends). [ ]: non-standard residue; d: D form. The star is where a group is joined. Propyl(2,2-Me2,3-OH) = CC(C)(CO)C*; NMeF = CN[C@@H](Cc1ccccc1)C(=O)O; NMeL = CN[C@@H](CC(C)C)C(=O)O; Piperidide = C1CCN(*)CC1; Sar = CNCC(=O)O
MEASURE NAME: Papp (×10⁻⁶ cm/s)

INSERT INTO assay_data (compound, readout_value) VALUES
  ('CC(C)C[C@@H]1NC(=O)[C@H](Cc2ccccc2)N(C)C(=O)[C@H](CC(C)C)N(C)C(=O)[C@H](COCC(C)(C)CO)NC(=O)[C@H](CC(C)C)N(C)C(=O)C[C@@H](C(=O)N2CCCCC2)NC(=O)[C@H](CC(C)C)N(C)C(=O)CN(C)C(=O)[C@H]([C@@H](C)O)NC(=O)[C@H](CC(C)C)N(C)C(=O)[C@H](Cc2ccccc2)N(C)C1=O [AP125] ([NMeL]S(Propyl(2,2-Me2,3-OH))[NMeL][NMeF]L[NMeF][NMeL]T[Sar][NMeL]D-Piperidide; lactam N-11)', 0.74);

----------
- TEST NAME: in vitro
- REPORTED CONDITIONS: human, Caco-2, Caco-2 (membrane permeability)
Where a SMILES comes first, the peptide text is derived from it. Bridges are numbered along the chain shown (N, C = ends). [ ]: non-standard residue; d: D form. The star is where a group is joined. NMehPhe = CN[C@@H](CCc1ccccc1)C(=O)O; NMeF = CN[C@@H](Cc1ccccc1)C(=O)O; CH2CH(OH)CF3 = OC(C*)C(F)(F)F; NMeL = CN[C@@H](CC(C)C)C(=O)O; Piperidide = C1CCN(*)CC1; CH2CONHMe = CNC(=O)C*; NBuGly = CCCCNCC(=O)O; Sar = CNCC(=O)O
MEASURE NAME: Papp (×10⁻⁶ cm/s)

INSERT INTO assay_data (molecule, readout_value) VALUES
  ('CCCCN1CC(=O)N(C)[C@@H](Cc2ccccc2)C(=O)N(C)[C@@H](CC(C)C)C(=O)N[C@@H](COCC(O)C(F)(F)F)C(=O)N(C)[C@@H](CC(C)C)C(=O)N[C@H](C(=O)N2CCCCC2)CC(=O)N(C)CC(=O)N(C)[C@@H](Cc2ccccc2)C(=O)N[C@@H]([C@@H](C)CC)C(=O)N(C)[C@@H](CC(C)C)C(=O)N[C@@H]([C@@H](C)O)C1=O (stereo partly drawn) [Compound C07] ([Sar][NMeF]I[NMeL]T[NBuGly][NMeF][NMeL]S(CH2CH(OH)CF3)[NMeL]D-Piperidide; lactam N-11)', 0.45),
  ('CNC(=O)COC[C@@H]1NC(=O)[C@H](CC(C)C)N(C)C(=O)C[C@@H](C(=O)N2CCCCC2)NC(=O)[C@H](CC(C)C)N(C)C(=O)CN(C)C(=O)[C@H]([C@@H](C)O)NC(=O)[C@H](CC(C)C)N(C)C(=O)[C@H](CCc2ccccc2)N(C)C(=O)[C@H](CC(C)C)NC(=O)[C@H](Cc2ccccc2)N(C)C(=O)[C@H](CC(C)C)N(C)C1=O [Compound I03] ([NMeL]S(CH2CONHMe)[NMeL][NMeF]L[NMehPhe][NMeL]T[Sar][NMeL]D-Piperidide; lactam N-11)', 0.25);
